Data provenance is paper doi:10.1101/2022.03.07.483330.

TEST_TARGET: DLL4.v2 (N-EGF5) (human, UniProt Q9NR61 27-400, N257P | T271L | F280Y | S301R | Q305P)
Sequence (Q9NR61 27-400 N257P/T271L/F280Y/S301R/Q305P): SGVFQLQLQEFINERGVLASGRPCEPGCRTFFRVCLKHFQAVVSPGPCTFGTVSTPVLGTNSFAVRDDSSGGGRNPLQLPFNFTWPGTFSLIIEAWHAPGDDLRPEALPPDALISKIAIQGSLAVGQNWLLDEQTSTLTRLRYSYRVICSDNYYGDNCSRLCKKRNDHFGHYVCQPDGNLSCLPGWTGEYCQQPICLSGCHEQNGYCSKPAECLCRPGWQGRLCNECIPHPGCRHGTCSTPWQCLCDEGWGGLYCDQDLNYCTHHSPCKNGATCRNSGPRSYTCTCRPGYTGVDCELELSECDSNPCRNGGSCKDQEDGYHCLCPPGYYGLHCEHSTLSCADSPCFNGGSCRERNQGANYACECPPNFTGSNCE
METHOD_DESCRIPTION: SPR

BINDER	binding result
human Notch4 (EGF7-12, residues 276-511), biotinylated (domain or fragment, UniProt Q99466 276-511, looked up, biotin on the C-terminal BAP-tag (BirA)) NPDNCVSHQCQNGGTCQDGLDTYTCLCPETWTGWDCSEDVDECETQGPPHCRNGGTCQNSAGSFHCVCVSGWGGTSCEENLDDCIAATCAPGSTCIDRVGSFSCLCPPGRTGLLCHLEDMCLSQPCHGDAQCSTNPLTGSTLCLCQPGYSGPTCHQDLDECLMAQQGPSPCEHGGSCLNTPGSFNCLCPPGYTGSRCEADHNECLSQPCHPGSTCLDLLATFHCLCPPGLEGQLCE	binds
